FYI, the data here is from patent US10662138B2.

- System: Zea mays (corn, maize, e.g. volunteer corn)
- TEST SUMMARY: Glasshouse assay for herbicidal activity, post-emergence, ZEAMX
- Type: in vivo
- CONDITION INFO: Zea mays, 312 h, 30 g/ha, visual 13 days after application, 100%=total damage, read-out: Percentage phytotoxicity ZEAMX
Would you mind telling me the reported pest or weed control at 30 g/ha of each entry?
Report the figure in % without appending any unit label.

What value of pest or weed control at 30 g/ha has been reported for the following compound? CC#Cc1ccc(C2C(=O)C3CCC(C3)C2=O)c(OC)c1 (stereo not drawn) [Compound A1] 100

Query: pest or weed control at 30 g/ha; subject: CC#Cc1ccc(C2C(=O)C3CCC(C3)C2=O)c(OCCC)c1 (stereo not drawn) [Compound A6] 40

# input compound: CC#Cc1ccc(C2C(=O)C3CCC(C3)C2=O)c(OCCOC)c1 (stereo not drawn) [Compound A15] ; wanted: its pest or weed control at 30 g/ha 40

Record request: pest or weed control at 30 g/ha value, item CC#Cc1ccc(C2C(=O)C3CCC(C3)C2=O)c(OC(F)F)c1 (stereo not drawn) [Compound A5] 100

Item CC#Cc1ccc(C2C(=O)C3CCC(C3)C2=O)c(OCC)c1 (stereo not drawn) [Compound A14] has what recorded pest or weed control at 30 g/ha? 70

// returns reported pest or weed control at 30 g/ha for input CC#Cc1ccc(C2C(=O)CCCC2=O)c(OC)c1 [Compound A10] 90

Entry CC#Cc1cc(OC)c(C2C(=O)C3CCC(C3)C2=O)c(OC)c1 (stereo not drawn) [Compound A7] has what pest or weed control at 30 g/ha? 100

Which pest or weed control at 30 g/ha reading was recorded for the compound CC#Cc1ccc(C2C(=O)C3CCC(C3)C2=O)c(OCC(F)(F)F)c1 (stereo not drawn) [Compound A4] ? 30

Requested field: pest or weed control at 30 g/ha. Item: CC#Cc1cc(OC)c(C2C(=O)C3CCC(C3)C2=O)c(C(F)(F)F)c1 (stereo not drawn) [Compound A3] 90

---

- System: Zea mays (corn, maize, e.g. volunteer corn)
- TEST SUMMARY: Glasshouse assay for herbicidal activity, post-emergence, ZEAMX
- Format: in vivo
- CONDITION INFO: Zea mays, 312 h, 30 g/ha, visual 13 days after application, 100%=total damage, read-out: Percentage phytotoxicity ZEAMX
EXPERIMENTAL ENDPOINT: pest or weed control at 30 g/ha (%)
State the answer as a number, implicitly in %.

Entry CC#Cc1ccc(C2C(=O)CC3(CCOCC3)CC2=O)c(OC)c1 : reported pest or weed control at 30 g/ha = ? 100

State the recorded pest or weed control at 30 g/ha for this entry: CC#Cc1ccc(C2C(=O)CC(CCSC)CC2=O)c(OC)c1 (stereo not drawn) 90

Can you look up the measured pest or weed control at 30 g/ha of CC#Cc1cc(OC)c(C2C(=O)CCCC2=O)c(OC)c1 for me? 100
